Tested on: WT Max(13-93) synthetic (M65Nle)
Assay: PBM 8-mer E-score (E-score (rank enrichment, -0.5 to 0.5)); higher = stronger preferential binding
Whole data set: some 33,000 sequences, median “E-score (rank enrichment, -0.5 to 0.5)” near -0.0075, cut for the highest 2% near 0.23. The sample as a whole holds a higher share of the highest values than the screen did.

[
  {
    "Seq Text": "ACACGTGT",
    "PBM 8-mer E-score": 0.487
  },
  {
    "Seq Text": "AAACGTGT",
    "PBM 8-mer E-score": 0.166
  },
  {
    "Seq Text": "CTTATGAA",
    "PBM 8-mer E-score": 0.0318
  },
  {
    "Seq Text": "AAGGAGCG",
    "PBM 8-mer E-score": -0.0544
  },
  {
    "Seq Text": "AAATTATA",
    "PBM 8-mer E-score": 0.237
  },
  {
    "Seq Text": "ATGCGCAC",
    "PBM 8-mer E-score": 0.102
  },
  {
    "Seq Text": "ACACGTGC",
    "PBM 8-mer E-score": 0.486
  },
  {
    "Seq Text": "CCGGCGTA",
    "PBM 8-mer E-score": -0.17
  },
  {
    "Seq Text": "CCGCACAA",
    "PBM 8-mer E-score": -0.0967
  },
  {
    "Seq Text": "ACGTGTTA",
    "PBM 8-mer E-score": 0.333
  },
  {
    "Seq Text": "CAAATTCA",
    "PBM 8-mer E-score": -0.0652
  },
  {
    "Seq Text": "GGACGCGA",
    "PBM 8-mer E-score": -0.0617
  },
  {
    "Seq Text": "ACGTGTTG",
    "PBM 8-mer E-score": 0.378
  },
  {
    "Seq Text": "CCATACAG",
    "PBM 8-mer E-score": -0.026
  },
  {
    "Seq Text": "AAATTATC",
    "PBM 8-mer E-score": 0.158
  },
  {
    "Seq Text": "AAACCCAT",
    "PBM 8-mer E-score": 0.236
  },
  {
    "Seq Text": "TAATTATA",
    "PBM 8-mer E-score": 0.264
  },
  {
    "Seq Text": "GCGTGTGA",
    "PBM 8-mer E-score": 0.201
  },
  {
    "Seq Text": "AGTCTGGC",
    "PBM 8-mer E-score": -0.226
  },
  {
    "Seq Text": "ATGGTGCG",
    "PBM 8-mer E-score": -0.0696
  },
  {
    "Seq Text": "CAAATAGC",
    "PBM 8-mer E-score": 0.0495
  },
  {
    "Seq Text": "CCATTGGG",
    "PBM 8-mer E-score": -0.154
  },
  {
    "Seq Text": "AAAACCTA",
    "PBM 8-mer E-score": 0.259
  },
  {
    "Seq Text": "CAATTATA",
    "PBM 8-mer E-score": 0.137
  },
  {
    "Seq Text": "AACAGATT",
    "PBM 8-mer E-score": -0.0422
  },
  {
    "Seq Text": "CAGGACGG",
    "PBM 8-mer E-score": -0.162
  },
  {
    "Seq Text": "TCACGTGA",
    "PBM 8-mer E-score": 0.444
  },
  {
    "Seq Text": "ATGCGCAA",
    "PBM 8-mer E-score": 0.142
  },
  {
    "Seq Text": "ATGGACAA",
    "PBM 8-mer E-score": 0.0228
  },
  {
    "Seq Text": "AACGCAAA",
    "PBM 8-mer E-score": -0.144
  },
  {
    "Seq Text": "AAAACCTT",
    "PBM 8-mer E-score": 0.0888
  },
  {
    "Seq Text": "CCGTGTTC",
    "PBM 8-mer E-score": 0.034
  },
  {
    "Seq Text": "GCAGACCA",
    "PBM 8-mer E-score": -0.213
  },
  {
    "Seq Text": "AAATTATG",
    "PBM 8-mer E-score": 0.127
  },
  {
    "Seq Text": "GTGGTGCA",
    "PBM 8-mer E-score": 0.0246
  },
  {
    "Seq Text": "GAACCCCC",
    "PBM 8-mer E-score": -0.387
  },
  {
    "Seq Text": "CAACCCTA",
    "PBM 8-mer E-score": 0.00074
  },
  {
    "Seq Text": "ATGCGCAT",
    "PBM 8-mer E-score": 0.285
  },
  {
    "Seq Text": "CGTTGCAA",
    "PBM 8-mer E-score": -0.0452
  },
  {
    "Seq Text": "AGACGTGC",
    "PBM 8-mer E-score": -0.0899
  },
  {
    "Seq Text": "GAATTATA",
    "PBM 8-mer E-score": 0.128
  },
  {
    "Seq Text": "TCACGTCA",
    "PBM 8-mer E-score": -0.00158
  },
  {
    "Seq Text": "TCGGCACA",
    "PBM 8-mer E-score": -0.0668
  },
  {
    "Seq Text": "AGGTGTTG",
    "PBM 8-mer E-score": -0.0777
  },
  {
    "Seq Text": "AGGGTGCC",
    "PBM 8-mer E-score": -0.11
  },
  {
    "Seq Text": "GCACGGAA",
    "PBM 8-mer E-score": -0.00447
  }
]
